- Target: T1, c-Met expressed on the surface of cynomolgus kidney cells (cynomolgus, UniProt A0A2K5UM36 25-1381)
- T1 construct: also called cynomologus c-Met expressed on the cell surface
- T1 sequence (A0A2K5UM36 entry or part of it limits assumed): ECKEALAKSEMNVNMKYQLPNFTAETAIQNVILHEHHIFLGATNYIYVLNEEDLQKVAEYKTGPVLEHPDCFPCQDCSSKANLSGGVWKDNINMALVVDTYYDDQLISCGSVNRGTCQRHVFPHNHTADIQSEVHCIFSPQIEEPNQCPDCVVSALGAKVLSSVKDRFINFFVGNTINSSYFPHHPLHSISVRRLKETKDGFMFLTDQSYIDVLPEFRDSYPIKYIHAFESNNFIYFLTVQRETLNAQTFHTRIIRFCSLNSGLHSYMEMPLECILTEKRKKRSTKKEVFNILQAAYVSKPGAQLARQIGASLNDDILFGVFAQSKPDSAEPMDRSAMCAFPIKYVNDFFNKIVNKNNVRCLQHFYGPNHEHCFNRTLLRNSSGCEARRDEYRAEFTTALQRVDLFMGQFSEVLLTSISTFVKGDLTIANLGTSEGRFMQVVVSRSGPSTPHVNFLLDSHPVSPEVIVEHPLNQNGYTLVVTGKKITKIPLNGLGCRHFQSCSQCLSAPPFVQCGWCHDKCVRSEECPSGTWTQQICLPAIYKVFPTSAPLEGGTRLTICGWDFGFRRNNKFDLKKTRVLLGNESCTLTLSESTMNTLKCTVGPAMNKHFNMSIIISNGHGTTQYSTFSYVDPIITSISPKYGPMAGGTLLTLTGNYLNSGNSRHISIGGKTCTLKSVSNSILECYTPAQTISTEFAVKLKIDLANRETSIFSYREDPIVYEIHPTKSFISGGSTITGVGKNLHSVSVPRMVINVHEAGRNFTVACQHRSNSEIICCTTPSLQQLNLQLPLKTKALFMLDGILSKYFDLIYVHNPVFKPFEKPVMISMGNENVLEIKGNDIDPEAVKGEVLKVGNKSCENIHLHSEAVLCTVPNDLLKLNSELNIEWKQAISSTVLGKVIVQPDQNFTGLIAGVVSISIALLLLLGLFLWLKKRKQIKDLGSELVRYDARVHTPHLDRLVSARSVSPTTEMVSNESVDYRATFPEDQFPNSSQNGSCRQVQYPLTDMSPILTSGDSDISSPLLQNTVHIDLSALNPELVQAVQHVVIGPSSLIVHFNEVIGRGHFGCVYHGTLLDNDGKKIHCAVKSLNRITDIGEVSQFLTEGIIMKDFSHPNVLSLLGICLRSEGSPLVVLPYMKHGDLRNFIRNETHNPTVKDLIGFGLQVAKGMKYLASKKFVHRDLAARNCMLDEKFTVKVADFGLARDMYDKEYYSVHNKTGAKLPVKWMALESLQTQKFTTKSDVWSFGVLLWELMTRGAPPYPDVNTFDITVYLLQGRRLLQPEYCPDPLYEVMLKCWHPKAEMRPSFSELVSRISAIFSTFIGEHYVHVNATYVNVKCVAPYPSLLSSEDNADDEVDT
- Protocol summary: flow cytometry on cynomolgus kidney cells, half-maximal binding at equilibrium
Observed property: Kd (nM)

>>> measured_result("anti-c-Met monoclonal antibody 8.90.3 (antibody, V domains shown, Human IgG2 kappa) VH: EVQLVESGGGLVQPGGSLRLSCAASGFTFSRYSMNWVRQAPGKGLEWVSYISSRSSTIYYADSVKGRFTMSRDNAKNSLYMQMNSLRDEDTAVYYCGYGDYDYFDYWGQGTLVTVSS VL: DIQMTQSPSSVSASVGDRVIITCRASQGISSWLAWYQQKPGKAPKLLIYAASSLKSGVPSRFSGSGSGTDFTVTISSLQPEDFATYYCQQSNSLPWTFGQGTKVEIKR")
0.393
